Values from PubChem BioAssay AID743457

molecular target: Group 3 secretory phospholipase A2 (Homo sapiens) (UniProt Q9NZ20); assay: HGIII-sPLA2 enzyme inhibition potency – biochemical, QFRET, IC50, dose response (AID 743457); details: recombinant hGIII-sPLA2, BODIPY PC-A2 QFRET fluorescence
Sequence (Q9NZ20 whole entry, looked up): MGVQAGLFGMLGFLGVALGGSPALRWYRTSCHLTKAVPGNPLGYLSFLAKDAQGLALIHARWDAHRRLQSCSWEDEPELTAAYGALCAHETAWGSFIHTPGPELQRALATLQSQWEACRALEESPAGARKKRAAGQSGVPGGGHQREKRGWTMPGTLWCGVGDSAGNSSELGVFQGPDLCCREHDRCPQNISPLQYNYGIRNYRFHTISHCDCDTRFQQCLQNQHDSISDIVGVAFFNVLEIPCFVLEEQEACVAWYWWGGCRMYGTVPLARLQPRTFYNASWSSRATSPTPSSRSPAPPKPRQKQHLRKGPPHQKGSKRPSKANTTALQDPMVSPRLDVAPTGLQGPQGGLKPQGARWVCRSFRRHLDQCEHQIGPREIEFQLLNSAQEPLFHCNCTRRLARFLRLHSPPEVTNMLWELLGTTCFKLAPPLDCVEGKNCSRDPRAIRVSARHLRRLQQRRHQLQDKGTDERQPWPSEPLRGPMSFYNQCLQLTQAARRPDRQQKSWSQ
The source made the active and inactive calls.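 Rule for the calls: active = IC50 at or below a set limit; inactive = IC50 above that limit.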
measured.metric: IC50

Please review the entries below; each comes with its answer.
molecule	IC50
O=C(CCN1C(=O)/C(=C/c2ccccc2Cl)SC1=S)NNC(=O)c1ccccc1O	inactive
C/C(=N\NC(=O)c1nnn(-c2nonc2N)c1CN(C)c1ccccc1)c1ccccc1O	inactive
CC(C)CC(=O)NC(=S)NNC(=O)c1ccc(NC(=O)C2CCCCC2)cc1	> 122 µM (inactive)
COc1ccc(C(=O)NNC(=S)NC(=O)c2cccs2)cc1	inactive
C=CCS/C(N)=N\N=C\c1cc(Br)cc([N+](=O)[O-])c1O	> 40.6 µM (inactive)
C/C(=N\NC(=S)NCC(C)(C)C)c1cc(F)cc(F)c1O	> 122 µM (inactive)
COc1ccc2nc(Nc3nc4cc5c(cc4s3)OCO5)sc2c1	inactive
CCC(C)N1C(=O)/C(=C\c2cc3c4c(c2)CCCN4CCC3)C(=O)NC1=S (stereo not drawn)	inactive
CNC(=S)NN=C(C)c1ccc(OC)cc1O	> 122 µM (inactive)
O=C(N/N=C/c1cc(Cl)cc([N+](=O)[O-])c1O)C(O)(c1ccccc1)c1ccccc1	inactive

Return reported IC50 values for all items listed beneath this line.
1. Cc1ccccc1C(=O)NNC(=S)NC(=O)c1cccs1
2. CC(C)(C)c1csc(NNC(=O)c2ccc(Br)cc2)n1
3. Cc1ccc2sc(NNC(=O)c3ccc4c(c3)OCCO4)nc2c1C
4. CNC(=S)N/N=C/c1cc(Br)cc(Br)c1O
5. O=[N+]([O-])c1ccc(O)c(N=Cc2sc3ccccc3c2O)c1
6. O=C1c2ccccc2C(=O)c2c(NCCCN(CCO)CCO)cccc21
7. CCCC[n+]1c2ccccc2cc2ccccc21

Given back:
1. > 40.6 µM (inactive)
2. > 122 µM (inactive)
3. inactive
4. > 122 µM (inactive)
5. > 122 µM (inactive)
6. > 122 µM (inactive)
7. inactive

Asked: Given the molecule COc1ccc(C(=O)NC(=S)NNC(=O)c2c(-c3ccccc3)noc2C)cc1OC , what is its reported IC50?
Given back: > 122 µM (inactive)
